- Test system: MEF E16 cells
- Protocol Notes: immunocytochemical staining for DCX and Map2ab in MEF cultures (neuronal differentiation)
- Assay type: cell-based, mouse
- Condition Parameters: Neurobasal plus 1% FCS, 10 μM, 7 days, FIG. 3B
Readout: number of DCX/Map2ab double positive cells

# annotated cases, reported number of DCX/Map2ab double positive cells shown
Cc1c(C)c2c(c(C)c1O)CCC(C)(CCCC(C)CCCC(C)CCCC(C)C)O2 (racemic)    marginally increase
COc1cc(O)c(CC=C(C)C)c2c1C(=O)CC(c1ccc(O)cc1)O2 (stereo not shown) [isoxanthohumol, reference compound]    Good results
Cc1c(C)c2c(c(C)c1O)CCC(C)(C)O2 [chromanol, 2,2,5,7,8-Pentamethyl-6-chromanol, reference compound]    marginally increase
CC(C)=CCc1c(O)cc2c(c1O)C(=O)CC(c1ccc(O)cc1)O2 (stereo not shown)    Good results

Kindly review the next compound as well.
Please look up its number of DCX/Map2ab double positive cells: CC(C)=CCc1c(O)cc(O)c2c1OC(c1ccc(O)cc1)CC2=O (stereo not shown)
Good results
